Test system: Puccinia triticina
experimental details: Wheat brown rust (PUCCRT), disease control on wheat seedlings
Assay type: in vivo
measurement context: 72 h, low volume application at 121.5 g/H, 3 Day Curative, read-out: PUCCRT disease control, 3DC, LV activity
pest or weed control at 121.5 g/ha listing for selected compounds.

Before answering, review these 10 worked examples.
compound	reported metric	experimental result
CCC(C)[C@H](c1ccc(C)cc1C)[C@H](C)OC(=O)[C@H](C)NC(=O)c1nccc(OC)c1OC(C)=O (some centres unmarked)	pest or weed control at 121.5 g/ha	< 80%
COc1ccnc(C(=O)N[C@@H](C)C(=O)O[C@@H](C)[C@H](c2cc(F)ccc2C)C(C)C)c1OC(C)=O	pest or weed control at 121.5 g/ha	< 80%
COc1ccnc(C(=O)N[C@H](C(=O)O[C@@H](C)[C@H](c2ccc(F)cc2C)C(C)C)C(C)C)c1OC(C)=O	pest or weed control at 121.5 g/ha	< 80%
COc1ccnc(C(=O)N[C@@H](C)C(=O)O[C@@H](C)[C@H](c2ccccc2)C(C)C)c1OC(C)=O	pest or weed control at 121.5 g/ha	> 80%
COc1ccnc(C(=O)N[C@@H](C)C(=O)O[C@@H](C)[C@H](c2ccc(F)cc2)C(C)C)c1OC(C)=O	pest or weed control at 121.5 g/ha	> 80%
COc1ccc([C@H](C(C)C)[C@H](C)OC(=O)[C@H](C)NC(=O)c2nccc(OC)c2OC(C)=O)cc1F	pest or weed control at 121.5 g/ha	< 80%
COCCC(=O)Oc1c(OC)ccnc1C(=O)N[C@H](C(=O)O[C@@H](C)[C@H](c1ccc(F)cc1C)C(C)C)C(C)C	pest or weed control at 121.5 g/ha	< 80%
COCCC(=O)Oc1c(OC)ccnc1C(=O)N[C@@H](CC(C)C)C(=O)O[C@@H](C)[C@H](c1ccc(F)cc1C)C(C)C	pest or weed control at 121.5 g/ha	< 80%
CCC(CC)[C@@H](c1ccc(F)cc1C)[C@H](C)OC(=O)[C@H](C)NC(=O)c1nccc(OC)c1OC(C)=O	pest or weed control at 121.5 g/ha	< 80%
COc1ccnc(C(=O)N[C@@H](C)C(=O)O[C@@H](C)[C@H](c2ccc(C)cc2C)C(C)C)c1OC(C)=O	pest or weed control at 121.5 g/ha	> 80%

Fill in the blank: the reported pest or weed control at 121.5 g/ha of `COc1ccnc(C(=O)N[C@@H](C)C(=O)O[C@@H](C)[C@@H](c2ccc(C)cc2C)C(C)C)c1OC(C)=O` is ____.
< 80%
